Cited source: ChEMBL document CHEMBL3632563

assay: Growth inhibition of human U266 cells; format: functional, cell-based; conditions: U-266
test readout: pEC50
Hey, just a heads up that pEC50 is the negative log base 10 of the concentration in molar.

Respond only with pEC50 recorded for `C=C1C2=C(C(=O)N1OC)[C@H](O)[C@@](C)(O)[C@H](CCCCC)O2`
5.17

* * *

test system: A549; assay: Cytotoxicity against human A549 cells assessed as decrease in cell viability at 10 to 100 uM after 48 hrs by SRB assay; assay type: functional, cell-based
The source made the active and inactive calls. The calls are words filed in the database; no cut-off is given here.
Respond only with the outcome that fits, drawn from label 1 for active, label 0 for inactive

Answer briefly: the call reported for `C=C1C2=C(C(=O)N1OC)[C@H](OC(C)=O)[C@@](C)(O)[C@H](CCCCC)O2` in this assay.
label 1

Test call for this compound, please: `C=C1C2=C(C(=O)N1OC)[C@H](O)[C@@](C)(O)[C@H](CCCCC)O2`
label 1

Any idea what this test logged for `C=C1C2=C(C(=O)N1OC)[C@H](OC(=O)CCl)[C@@](C)(O)[C@H](CCCCC)O2` ?
label 1

What outcome does the record of this test show for `CCCCC[C@@H]1OC(/C(C)=N/OC)=C(C(=O)O)[C@H](O)[C@@]1(C)O` ?
label 0

Each compound tested received a call. Report the one for CCCCC[C@@H]1OC2=C(C(=O)NC2(COC)OC)[C@H](O)[C@@]1(C)O (stereo not given in full) .
label 0
